biological target: rPenton, recombinant penton capsomere of human AdV-5 fiber and penton base (human AdV-5); assay: SPR
Sequence (P11818 whole entry, chain 1 of 2): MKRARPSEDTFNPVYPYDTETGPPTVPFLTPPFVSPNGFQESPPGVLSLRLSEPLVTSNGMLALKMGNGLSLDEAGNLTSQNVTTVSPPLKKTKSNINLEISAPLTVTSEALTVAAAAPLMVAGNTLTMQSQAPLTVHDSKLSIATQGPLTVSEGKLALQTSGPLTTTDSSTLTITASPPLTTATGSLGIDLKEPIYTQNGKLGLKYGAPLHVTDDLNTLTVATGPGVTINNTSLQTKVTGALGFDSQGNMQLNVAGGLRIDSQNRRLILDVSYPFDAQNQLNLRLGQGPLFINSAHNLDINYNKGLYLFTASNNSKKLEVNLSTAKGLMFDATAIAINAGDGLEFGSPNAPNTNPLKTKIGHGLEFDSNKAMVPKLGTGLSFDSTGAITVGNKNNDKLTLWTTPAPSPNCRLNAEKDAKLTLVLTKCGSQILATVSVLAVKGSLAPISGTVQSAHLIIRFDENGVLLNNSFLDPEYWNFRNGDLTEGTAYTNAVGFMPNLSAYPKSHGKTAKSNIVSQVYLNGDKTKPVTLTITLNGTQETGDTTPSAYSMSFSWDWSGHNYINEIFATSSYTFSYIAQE
Sequence (P12538 whole entry, chain 2 of 2, further chain): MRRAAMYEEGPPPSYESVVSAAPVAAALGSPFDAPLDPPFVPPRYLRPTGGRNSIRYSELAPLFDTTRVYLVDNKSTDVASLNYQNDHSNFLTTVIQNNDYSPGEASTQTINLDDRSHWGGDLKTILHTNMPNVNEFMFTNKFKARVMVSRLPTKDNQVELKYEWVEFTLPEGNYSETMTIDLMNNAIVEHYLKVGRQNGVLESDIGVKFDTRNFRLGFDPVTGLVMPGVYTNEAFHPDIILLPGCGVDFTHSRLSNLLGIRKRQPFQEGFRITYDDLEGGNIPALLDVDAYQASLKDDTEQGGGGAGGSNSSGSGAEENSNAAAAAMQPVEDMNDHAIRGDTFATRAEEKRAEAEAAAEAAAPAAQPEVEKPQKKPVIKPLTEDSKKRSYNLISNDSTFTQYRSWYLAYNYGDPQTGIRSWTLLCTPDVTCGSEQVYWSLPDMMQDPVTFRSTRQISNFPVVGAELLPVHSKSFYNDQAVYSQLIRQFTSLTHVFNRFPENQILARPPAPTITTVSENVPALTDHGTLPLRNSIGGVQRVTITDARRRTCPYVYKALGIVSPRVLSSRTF
Outcome Measure: pKd
Give bare numbers, as −log10 of the molar value.

q: Please report the recorded pKd for ATCYCRTGRCATRESLSGVCEISGRLYRLCCR [human α-defensin 5 (HD5), wild type] .
a: 5.74
